target: ForT (Streptomyces kaniharaensis, UniProt A0A5S9CYM0, G134P); assay: biochemical
Sequence (A0A5S9CYM0 entry or part of it G134P): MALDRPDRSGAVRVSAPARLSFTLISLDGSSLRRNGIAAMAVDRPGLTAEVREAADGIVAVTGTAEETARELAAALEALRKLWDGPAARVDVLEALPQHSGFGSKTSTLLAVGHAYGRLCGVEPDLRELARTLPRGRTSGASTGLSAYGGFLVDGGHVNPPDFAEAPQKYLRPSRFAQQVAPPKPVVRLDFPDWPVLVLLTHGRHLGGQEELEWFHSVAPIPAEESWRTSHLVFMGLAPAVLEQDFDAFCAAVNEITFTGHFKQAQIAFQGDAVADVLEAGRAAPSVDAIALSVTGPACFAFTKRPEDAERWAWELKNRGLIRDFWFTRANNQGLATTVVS
pKd: −log10 of the molar value.
EXPERIMENTAL_READOUT: pKd

IN: Consider the compound O=P(O)(O)OC[C@H]1O[C@H](OP(=O)(O)OP(=O)(O)O)[C@H](O)[C@@H]1O [compound 4, PRPP] and give its recorded pKd.
OUT: < 3.70

====

target: ForT (Streptomyces kaniharaensis, UniProt A0A5S9CYM0)
Sequence (A0A5S9CYM0 1-341): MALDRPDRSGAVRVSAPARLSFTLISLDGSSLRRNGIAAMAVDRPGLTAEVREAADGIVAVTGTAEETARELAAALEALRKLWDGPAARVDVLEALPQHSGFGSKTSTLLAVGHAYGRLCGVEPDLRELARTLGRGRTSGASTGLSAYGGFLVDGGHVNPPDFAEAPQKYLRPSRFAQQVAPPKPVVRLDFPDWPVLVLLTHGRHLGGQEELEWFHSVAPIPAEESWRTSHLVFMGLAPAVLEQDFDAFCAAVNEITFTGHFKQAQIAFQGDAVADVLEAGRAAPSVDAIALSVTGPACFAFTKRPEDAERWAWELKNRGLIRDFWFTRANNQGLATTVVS
EXPERIMENTAL_READOUT: pKd
FYI, pKd means -log10 of a concentration in mol per litre.

IN: Print ForT (Streptomyces kaniharaensis, UniProt A0A5S9CYM0) pKd for O=P(O)(O)OC[C@H]1O[C@H](OP(=O)(O)OP(=O)(O)O)[C@H](O)[C@@H]1O .
OUT: 5.40
